Just for reference, patent US20140112915A1 is where these values come from.

Molecular target: T1, Recombinant human IL-18 (human, UniProt Q14116 37-193)
T1 construct: Used unlabeled or biotinylated depending on the assay step; also called Hu IL-18; hr IL-18
T1 sequence: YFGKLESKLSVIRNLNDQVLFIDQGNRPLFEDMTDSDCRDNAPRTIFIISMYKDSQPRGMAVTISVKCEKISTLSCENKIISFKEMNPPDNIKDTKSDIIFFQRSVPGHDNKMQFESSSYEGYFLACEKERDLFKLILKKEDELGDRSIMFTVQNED
Assay: solution equilibrium titration (SET), ECL detection; human IL-18; unbracketed value, column Hu IL-18
Listing of entries alongside the reported Kd.

| BINDER | Kd / pM |
| --- | --- |
| MOR10222_E1Q_N30S_M54I (antibody, human IgG1, lambda, L234A L235A, V domains shown) VH: QVQLVQSGAEVKKPGSSVKVSCKASGGTFSSYAISWVRQAPGQGLEWMGNIIPITGQTYYAQKFQGRVTITADESTSTAYMELSSLRSEDTAVYYCARAAYHPLVFDNWGQGTLVTVSS VL: QSVLTQPPSASGTPGQRVTISCSGSSSNIGNHYVNWYQQLPGTAPKLLIYRNNHRPSGVPDRFSGSKSGTSASLAISGLQSEDEADYYCQSWDYSGFSTVFGGGTKLTVLG | 3 |
| MOR13361 (antibody, human IgG1, kappa, L234A L235A, V domains shown) VH: QVQLLESGGGLVQPGGSLRLSCAASGFTFSSYAIHWVRQAPGKGLEWVSTIQSSGENKFYADSVKGRFTISRDNSKNTLYLQMNSLRAEDTAVYYCARVMIGYGFDYWGQGTLVTVSS VL: DIQMTQSPSSLSASVGDRVTITCRASQSIFNYLNWYQQKPGKAPKLLIYDSSTLQSGVPSRFSGSGSGTDFTLTISSLQPEDFATYYCHQYSGLLFTFGQGTKVEIKR | 7 |
| MOR9464_N30K (antibody, human IgG1, lambda, L234A L235A, V domains shown, also called MOR09464_N30K) VH: EVQLVQSGAEVKKPGSSVKVSCKASGGTFKSYAISWVRQAPGQGLEWMGNIIPMTGQTYYAQKFQGRVTITADESTSTAYMELSSLRSEDTAVYYCARAAYHPLVFDNWGQGTLVTVSS VL: DIVLTQPPSVSGAPGQRVTISCSGSSSNIGNHYVNWYQQLPGTAPKLLIYRNNHRPSGVPDRFSGSKSGTSASLAITGLQSEDEADYYCQSWDYSGFSTVFGGGTKLTVLG | 2 |
| MOR13363 (antibody, human IgG1, kappa, L234A L235A, V domains shown) VH: QVQLLESGGGLVQPGGSLRLSCAASGFTFSSYAIHWVRQAPGKGLEWVSVISGEGSNTYYADSVKGRFTISRDNSKNTLYLQMNSLRAEDTAVYYCARVMIGYGFDYWGQGTLVTVSS VL: DIQMTQSPSSLSASVGDRVTITCRASQSIFNYLNWYQQKPGKAPKLLIYDSSTLQSGVPSRFSGSGSGTDFTLTISSLQPEDFATYYCLQYSGFLFTFGQGTKVEIKR | 10 |
| MOR13341 (antibody, human IgG1, kappa, L234A L235A, V domains shown) VH: QVQLVQSGAEVKKPGSSVKVSCKASGGTFSTFSISWVRQAPGQGLEWMGGIIPIFGTANYAQKFQGRVTITADESTSTAYMELSSLRSEDTAVYYCARGGYGGYYYFDYWGQGTLVTVSS VL: DIQMTQSPSSLSASVGDRVTITCRASQSISNRLNWYQQKPGKAPKLLIYKGSTLQSGVPSRFSGSGSGTDFTLTISSLQPEDFATYYCQQHKVWLTTFGQGTKVEIKR | 3 |
